These entries and their values trace back to PubChem BioAssay (NCI).

System: RPMI-8226 leukemia
Assay name: NCI tumour cell line growth inhibition, 48 h; in the data active = GI50 below about 0.43 µM; inactive = the rest
Classes used: true = active, false = inactive

- Query smiles: "CC(C)c1c(C(=O)Nc2ccccc2)c(-c2ccccc2)c(-c2ccc(F)cc2)n1CC[C@@H](O)C[C@@H](O)CC(=O)O"
  Group label: "false"
- Query smiles: "O=C(c1ccco1)c1c(C(F)(F)F)n([O-])c2cc(Cl)c(Cl)cc2[n+]1=O"
  Group label: "true"
- Query smiles: "O=c1[nH]c(-c2ccncc2)nc2sc3c(c12)CCCCCC3"
  Group label: "false"
- Query smiles: "CN1CC[C@H](N(C)C(=O)N2CC(c3cc(F)ccc3F)=C[C@@]2(CO)c2ccccc2)[C@H](F)C1"
  Group label: "true"
- Query smiles: "COc1cc2nc(NC3CCC3)nc(NC3CCN(C(C)C)CC3)c2cc1OC"
  Group label: "false"

###

System: MCF7 breast
Assay name: NCI tumour cell line growth inhibition, 48 h; in the data active = GI50 below about 0.43 µM; inactive = the rest
Classes used: True = active, False = inactive

- Molecule: "COc1ccc2c(c1)OCC1c3cc(OC)ccc3OC21 (configuration not stated)"
  Group label: "False"
- Molecule: "Nc1ncnc2c1ncn2C1SC(CO)C(O)C1O (configuration not stated)"
  Group label: "False"
- Molecule: "CC(=O)Nc1ccc(S(=O)(=O)N2C(=O)CCC2C(=O)Nc2ccccc2)cc1 (configuration not stated)"
  Group label: "False"
- Molecule: "CC1(C)N=C(N)N=C(N)N1c1cccc(CC(=O)Nc2ccccc2)c1"
  Group label: "False"
- Molecule: "Cc1ccccc1C1N=C2Oc3ccccc3C=C2C(=O)N1 (configuration not stated)"
  Group label: "False"
- Molecule: "CC1SC(c2ccc(OCc3ccccc3)cc2)N(NC(=O)C(O)(c2ccccc2)c2ccccc2)C1=O (configuration not stated)"
  Group label: "False"
- Molecule: "CN(C)c1ccc(-c2cc(-c3cccc(NS(C)(=O)=O)c3)nc(N)c2C#N)cc1"
  Group label: "True"
- Molecule: "CNC(=S)N/N=C/CSC/C=N/NC(=S)NC"
  Group label: "False"
- Molecule: "C=CN(C(=O)N1CCN(c2cc3c(cc2F)c(=O)c(C(=O)O)cn3C2CC2)CC1)c1nc(-c2ccc(C)cc2)cs1"
  Group label: "False"
- Molecule: "CC[C@@]12CC(C(=O)OC)=C3Nc4ccccc4[C@@]34CCN(C[C@H]3O[C@H]31)[C@@H]24"
  Group label: "False"
- Molecule: "CCn1nc(C#Cc2c(C)ccc3c(Nc4ccc(Cl)cc4)nccc23)c2c(N)ncnc21"
  Group label: "False"
- Molecule: "CC/C(=C\\c1ccc(N(C)C)cc1)c1ccncc1"
  Group label: "False"
- Molecule: "Cc1ccc(CNc2ccc(Cl)cc2NCc2ccc(C)c(O)c2)cc1O"
  Group label: "False"
- Molecule: "N=C(N)c1ccc(-c2ccc(-c3cccs3)s2)cc1F"
  Group label: "False"
- Molecule: "CC1(C)CC[C@]2(C(=O)O)CC[C@]3(C)C(=CC[C@@H]4[C@@]5(C)C/C(=C/c6cccnc6)[C@H](O)C(C)(C)[C@@H]5CC[C@]43C)[C@@H]2C1"
  Group label: "False"
- Molecule: "C=C1C(=O)O[C@H]2[C@H]1CC/C(COC(=O)NCc1ccc(Cn3c(=O)sn(CCCI)c3=O)cc1)=C\\CC[C@@]1(C)O[C@@H]21"
  Group label: "False"
- Molecule: "NC1=Nc2cc(OCCCCN3Cc4ccccc4C3)c(OCC3CC3)cc2C12CCCC2"
  Group label: "False"

###

Below, each entry is listed with its recorded TGI.
Test system: SNB-19 CNS
Assay name: NCI tumour cell line growth inhibition, 48 h
Assay endpoint: TGI (µM)

- Query smiles: "CC[C@@]12CC(C(=O)OC)=C3Nc4ccccc4[C@@]34CCN(C[C@H]3O[C@H]31)[C@@H]24"
  Test target: "SNB-19 CNS"
  Limit qualifier: "="
  Endpoint value: 30.7
- Query smiles: "CC(=O)OCCn1c(Cc2ccc(Cl)cc2)nn(C(C)=O)c1=O"
  Test target: "SNB-19 CNS"
  Limit qualifier: ">"
  Endpoint value: 100
- Query smiles: "CC1(C)CCC(c2ccc(Cl)cc2)=C(CN2CCN(c3ccc(C(=O)NS(=O)(=O)c4ccc(N[C@H](CCN5CCOCC5)CSc5ccccc5)c(S(=O)(=O)C(F)(F)F)c4)cc3)CC2)C1"
  Test target: "SNB-19 CNS"
  Limit qualifier: "="
  Endpoint value: 9.14
- Query smiles: "Nc1ccc(Oc2ccc(C3(c4ccc(Oc5ccc(N)c(O)c5)cc4)C4CC5CC(C4)CC3C5)cc2)cc1O"
  Test target: "SNB-19 CNS"
  Limit qualifier: "="
  Endpoint value: 7.6
- Query smiles: "O=C1/C(=C/c2ccc(Cl)cc2)NC(=S)N1CN1CCCCC1"
  Test target: "SNB-19 CNS"
  Limit qualifier: "="
  Endpoint value: 68.7
- Query smiles: "CC(C)OP(=O)(OC(C)C)C(=Nc1ccc(N=C(NNc2ccc([N+](=O)[O-])cc2)P(=O)(OC(C)C)OC(C)C)cc1)NNc1ccc([N+](=O)[O-])cc1"
  Test target: "SNB-19 CNS"
  Limit qualifier: ">"
  Endpoint value: 100
- Query smiles: "CC(=O)OC1=C(c2ccccc2)S(=O)(=O)c2ccccc21"
  Test target: "SNB-19 CNS"
  Limit qualifier: ">"
  Endpoint value: 100
- Query smiles: "c1c[nH]c(CN2CCN(Cc3ncc[nH]3)CC2)n1"
  Test target: "SNB-19 CNS"
  Limit qualifier: ">"
  Endpoint value: 100

###

Below, each entry is listed with its recorded GI50.
Test system: CAKI-1 renal
Assay name: NCI tumour cell line growth inhibition, 48 h

- Query smiles: "CC1(C)CCC(c2ccc(Cl)cc2)=C(CN2CCN(c3ccc(C(=O)NS(=O)(=O)c4ccc(N[C@H](CCN5CCOCC5)CSc5ccccc5)c(S(=O)(=O)C(F)(F)F)c4)cc3)CC2)C1"
  GI50: "1720 nM"
- Query smiles: "COC(=O)[C@@H](C)C[C@H](Cc1ccccc1)NC(=O)c1nc([C@@H](C[C@H](C(C)C)N(C)C(=O)[C@@H](NC(=O)[C@H]2CC(=O)CCN2C)C(C)C)OC(C)=O)sc1C(C)C"
  GI50: "499 nM"
- Query smiles: "CNC(=S)N/N=C/CSC/C=N/NC(=S)NC"
  GI50: "> 100000 nM"

###

Tested on: MDA-MB-231 breast
Assay name: NCI tumour cell line growth inhibition, 48 h
Below, each entry is listed with its recorded log10 TGI.
Assay endpoint: log10 TGI (log10 of the value in µM)

- Compound: "CC(C)c1c(C(=O)Nc2ccccc2)c(-c2ccccc2)c(-c2ccc(F)cc2)n1CC[C@@H](O)C[C@@H](O)CC(=O)O"
  Test target: "MDA-MB-231 breast"
  log10 TGI: 0.82
- Compound: "COC(=O)[C@@H](N1C(=O)c2ccccc2C1=O)C1(C)CC(Cl)=NO1 (stereo not given in full)"
  Test target: "MDA-MB-231 breast"
  log10 TGI: 1.78
- Compound: "CN(C)CCCCN1c2ccccc2Sc2ccc(N=[N+]=[N-])cc21"
  Test target: "MDA-MB-231 breast"
  log10 TGI: 1.30
- Compound: "COc1ccc2nc3cc(Cl)ccc3c(NCCCN(C)CCCNc3ccc4ncn5c6ccccc6c(=O)c3c45)c2c1"
  Test target: "MDA-MB-231 breast"
  log10 TGI: 0.78
- Compound: "COc1cc2nc(NC3CCC3)nc(NC3CCN(C(C)C)CC3)c2cc1OC"
  Test target: "MDA-MB-231 breast"
  log10 TGI: 0.58
- Compound: "C[C@@H](NC(=O)Nc1cccc(C(=O)Nc2cc(C(C)(C)C)ccc2C(=O)O)n1)c1ccccc1"
  Test target: "MDA-MB-231 breast"
  log10 TGI: 1.70
- Compound: "O=C(/C=C/c1c[nH]c2ccccc12)c1ccccc1O"
  Test target: "MDA-MB-231 breast"
  log10 TGI: 1.26
- Compound: "COc1cc(C(=O)N[C@@H]2CCCN(C)C2)ccc1Nc1ncc2c(n1)N(C1CCCC1)CC(C)(C)C(=O)N2C"
  Test target: "MDA-MB-231 breast"
  log10 TGI: 1.19
- Compound: "COC1=C(OC)C(=O)c2cc(C)c(=O)c(C)cc2C1=O"
  Test target: "MDA-MB-231 breast"
  log10 TGI: 1.32
- Compound: "COC(=O)c1c(C(=O)OC)c2ccccn2c1-c1cc(C)cc2c1C(=O)C=CC2=O"
  Test target: "MDA-MB-231 breast"
  log10 TGI: 1.20

###

Test system: LOX IMVI melanoma
Assay name: NCI tumour cell line growth inhibition, 48 h
Note to self: values exactly at 20 µM are True. So TGI at or above 20 µM is True, below is False.

- Compound: "NS(=O)(=O)c1ccc(NNc2c3ccccc3nc3c(C(=O)Nc4ccc(S(N)(=O)=O)cc4)cccc23)cc1"
  Group label: "True"
- Compound: "NC(Cc1c2ccccc2cc2ccccc12)C(=O)O (stereo not given)"
  Group label: "True"
- Compound: "CN1CN(c2ccccc2)C2(CCN(CCCN(C)c3ccc(F)cc3)CC2)C1=O"
  Group label: "True"
- Compound: "COc1cc(C(=O)N[C@@H]2CCCN(C)C2)ccc1Nc1ncc2c(n1)N(C1CCCC1)CC(C)(C)C(=O)N2C"
  Group label: "False"
- Compound: "O=C(O)c1ccc2nc(-c3ccccn3)c(-c3ccccn3)nc2c1"
  Group label: "True"
- Compound: "CC1CC(=O)C(CC(=O)O)[C@H]1C(C(=O)C(=O)Nc1cc(Cl)ccc1Cl)[N+](=O)[O-] (stereo not given in full)"
  Group label: "True"
- Compound: "O=C1OCC2=C1C(c1ccc(Cl)cc1)c1cc3c(cc1O2)OCO3 (stereo not given)"
  Group label: "True"
- Compound: "CN(C)CCCCN1c2ccccc2Sc2ccc(N=[N+]=[N-])cc21"
  Group label: "False"
- Compound: "COc1cc(/C=C2\\C(=O)Nc3ccc(O)cc32)cc(OC)c1OC"
  Group label: "False"
- Compound: "FC(F)(F)c1ccc2c(c1)nc(Cc1ccc(Cl)cc1)n2CC1CCCN2CCCCC12 (stereo not given)"
  Group label: "False"
